Target: 5-hydroxytryptamine receptor 2B (Homo sapiens)
Sequence (P41595 whole entry): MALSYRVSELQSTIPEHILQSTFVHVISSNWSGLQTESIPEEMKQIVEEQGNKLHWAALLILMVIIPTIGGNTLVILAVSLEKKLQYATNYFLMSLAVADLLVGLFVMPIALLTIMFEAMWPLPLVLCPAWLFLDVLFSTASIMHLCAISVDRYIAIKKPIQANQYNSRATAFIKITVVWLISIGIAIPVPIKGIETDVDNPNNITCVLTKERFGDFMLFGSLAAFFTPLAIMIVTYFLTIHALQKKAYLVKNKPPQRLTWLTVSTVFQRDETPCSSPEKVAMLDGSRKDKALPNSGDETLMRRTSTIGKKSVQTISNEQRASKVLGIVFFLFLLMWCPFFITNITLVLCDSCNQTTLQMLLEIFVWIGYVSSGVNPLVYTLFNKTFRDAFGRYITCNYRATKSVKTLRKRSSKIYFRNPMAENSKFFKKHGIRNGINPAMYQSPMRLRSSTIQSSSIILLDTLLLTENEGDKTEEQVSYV
Test: Antagonist activity at recombinant human 5-HT2B receptor expressed in CHOK1 cells assessed as inhibition of serotonin-induced increase in inositol1-phosphate accumulation measured after 30 mins by HTRF assay
measure: pEC50
pEC50 (log units): -log10 of the concentration in mol/L.

Challenge: Name the recorded pEC50 of the compound listed here: `Cn1ccc2cc3c(cc21)CCN3C(=O)Nc1cccnc1`
Response given: 7.89

* * *

Molecular target: Beta-2 adrenergic receptor (Homo sapiens, UniProt P07550)
Sequence (P07550 whole entry): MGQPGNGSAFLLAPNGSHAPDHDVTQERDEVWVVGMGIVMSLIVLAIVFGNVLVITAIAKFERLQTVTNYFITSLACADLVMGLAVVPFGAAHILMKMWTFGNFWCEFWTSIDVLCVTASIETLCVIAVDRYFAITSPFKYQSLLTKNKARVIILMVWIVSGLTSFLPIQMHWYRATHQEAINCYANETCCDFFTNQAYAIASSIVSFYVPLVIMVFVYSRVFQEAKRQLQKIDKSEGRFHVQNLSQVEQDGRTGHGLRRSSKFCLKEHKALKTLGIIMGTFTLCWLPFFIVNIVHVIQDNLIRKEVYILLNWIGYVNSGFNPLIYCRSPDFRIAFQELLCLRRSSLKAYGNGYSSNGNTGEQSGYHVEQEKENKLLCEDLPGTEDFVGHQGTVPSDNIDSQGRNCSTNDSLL
Assay: Displacement of [3H]-CGP12177 from recombinant human beta2 adrenergic receptor expressed in HEK Flp-In cell membranes measured after 90 mins by microbeta scintillation counting method
measure: Ki

Challenge: Look up and state reported Ki for CCCN[C@H]1CCc2nc(N)sc2C1 [PRAMIPEXOLE]
Response given: > 10 µM

* * *

Molecular target: D(2) dopamine receptor (Homo sapiens, UniProt P14416)
Sequence (P14416 whole entry): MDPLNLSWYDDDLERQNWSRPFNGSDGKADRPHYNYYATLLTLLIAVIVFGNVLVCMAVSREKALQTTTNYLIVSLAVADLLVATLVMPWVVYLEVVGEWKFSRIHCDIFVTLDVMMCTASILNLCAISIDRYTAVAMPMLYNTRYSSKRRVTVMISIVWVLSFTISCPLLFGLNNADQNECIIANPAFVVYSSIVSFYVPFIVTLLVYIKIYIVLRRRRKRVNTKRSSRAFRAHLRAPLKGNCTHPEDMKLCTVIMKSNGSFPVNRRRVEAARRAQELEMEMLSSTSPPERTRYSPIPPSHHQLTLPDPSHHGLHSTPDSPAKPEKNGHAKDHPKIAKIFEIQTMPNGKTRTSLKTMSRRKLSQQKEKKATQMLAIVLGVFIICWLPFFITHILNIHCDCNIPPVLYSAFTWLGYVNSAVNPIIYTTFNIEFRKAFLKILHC
Assay: Antagonist activity at human D2R expressed in CHOK1 cells assessed as inhibition of dopamine-induced beta-arrestin recruitment measured after 120 mins by beta-galactosidase based PathHunter assay
Assay type: cell-based
measure: IC50

O=C(c1n[nH]c2ccccc12)N1CCN(CCOc2cccnc2)CC1 Not Active
COc1cccc(OCCN2CCN(C(=O)c3cc4cc(OC)ccc4[nH]3)CC2)c1 Not Active
COc1ccc(OCCN2CCN(S(=O)(=O)c3ccc(OC)cc3)CC2)cc1 Not Active
COc1ccc(OCCN2CCN(C(=O)c3cc4cc(Cl)ccc4[nH]3)CC2)cc1 Not Active
O=C(c1cc2c(Cl)cccc2[nH]1)N1CCN(CCOc2cccnc2)CC1 Not Active

Challenge: Specify reported IC50 for the compound shown: `COc1ccc(OCCN2CCN(C(=O)c3cc4ncccc4[nH]3)CC2)cc1`
Response given: Not Active

Challenge: Consider the compound `Cc1cccc2[nH]c(C(=O)N3CCN(CCOc4cccnc4)CC3)cc12` . State its measured IC50.
Response given: Not Active

Challenge: Consider the compound `COc1ccc(OCCN2CCN(C(=O)c3cc4ccc(C)cc4[nH]3)CC2)cc1` and give its recorded IC50.
Response given: Not Active

Challenge: Identify the reported IC50 for the following entry. `O=C(c1cc2ccccc2[nH]1)N1CCN(CCOc2ccc([N+](=O)[O-])cc2)CC1`
Response given: Not Active

* * *

Target: 5-hydroxytryptamine receptor 2A (Homo sapiens)
Assay: Displacement of [3H]-Ketanserin from 5HT2A receptor (unknown origin) measured after 90 mins by microbeta scintillation counting method
Conditions: read-out: Ki
measure: pKi
In simple prose, pKi is minus the logarithm base ten of a concentration in moles per litre.

Challenge: Name the recorded pKi of the compound listed here: `CCCN(CC[C@]1(O)C[C@H](NC(=O)c2ccc3ccccc3c2)C1)[C@H]1CCc2nc(N)sc2C1`
Response given: 5.55

* * *

Molecular target: sigma1 receptor (Homo sapiens)
Sequence (Q99720 whole entry): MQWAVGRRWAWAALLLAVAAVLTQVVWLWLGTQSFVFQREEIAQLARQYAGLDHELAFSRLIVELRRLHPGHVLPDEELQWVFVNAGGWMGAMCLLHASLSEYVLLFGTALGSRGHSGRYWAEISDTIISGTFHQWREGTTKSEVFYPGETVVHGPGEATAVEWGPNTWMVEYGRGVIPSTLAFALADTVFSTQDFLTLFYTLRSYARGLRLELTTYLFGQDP
Assay: Displacement of [3H]-pentazocine from sigma1 receptor (unknown origin) at 10 uM after 90 mins by microbeta scintillation counting method relative to control
Conditions: probe [3H]-pentazocine
What inhibition at […], 10 µM was measured for each of the following?

Challenge: Give inhibition at […], 10 µM for `CCCN(CC[C@]1(O)C[C@H](NC(=O)c2ccc3ccccc3c2)C1)[C@H]1CCc2nc(N)sc2C1`
Response given: > 50%

Challenge: Provide only the value of recorded inhibition at […], 10 µM for CCCN[C@H]1CCc2nc(N)sc2C1 [PRAMIPEXOLE]
Response given: > 50%
